Just for reference, patent US6887879B2 is where these values come from.

Assay explanation: Cytotoxicity, [3H]-thymidine uptake, HSF
Assay type: cell-based
Assay conditions: human, human skin fibroblasts (HSF)

Compound: Nc1nc2c(ncn2[C@H]2CO[C@@H](CO)O2)c(=O)[nH]1 [DXG, (−)-β-D-1,3-dioxolane guanine]
CC50 at 72 h: ≥ 500 µM
--
Compound: Nc1nc(N)c2ncn([C@H]3CO[C@@H](CO)O3)c2n1 [DAPD, (−)- -D-2,6-diaminopurine-1,3-dioxolane]
CC50 at 72 h: > 500 µM
--
Compound: Cc1cn([C@H]2C[C@H](N=[N+]=[N-])[C@@H](CO)O2)c(=O)[nH]c1=O [AZT, zidovudine, reference compound]
CC50 at 72 h: > 10 µM
--
Compound: Nc1ccn([C@@H]2CS[C@H](CO)O2)c(=O)n1 [lamivudine, reference compound]
CC50 at 72 h: 400 µM
